molecular target: Voltage-gated inwardly rectifying potassium channel KCNH2 (Homo sapiens, UniProt Q12809)
Sequence (Q12809 whole entry): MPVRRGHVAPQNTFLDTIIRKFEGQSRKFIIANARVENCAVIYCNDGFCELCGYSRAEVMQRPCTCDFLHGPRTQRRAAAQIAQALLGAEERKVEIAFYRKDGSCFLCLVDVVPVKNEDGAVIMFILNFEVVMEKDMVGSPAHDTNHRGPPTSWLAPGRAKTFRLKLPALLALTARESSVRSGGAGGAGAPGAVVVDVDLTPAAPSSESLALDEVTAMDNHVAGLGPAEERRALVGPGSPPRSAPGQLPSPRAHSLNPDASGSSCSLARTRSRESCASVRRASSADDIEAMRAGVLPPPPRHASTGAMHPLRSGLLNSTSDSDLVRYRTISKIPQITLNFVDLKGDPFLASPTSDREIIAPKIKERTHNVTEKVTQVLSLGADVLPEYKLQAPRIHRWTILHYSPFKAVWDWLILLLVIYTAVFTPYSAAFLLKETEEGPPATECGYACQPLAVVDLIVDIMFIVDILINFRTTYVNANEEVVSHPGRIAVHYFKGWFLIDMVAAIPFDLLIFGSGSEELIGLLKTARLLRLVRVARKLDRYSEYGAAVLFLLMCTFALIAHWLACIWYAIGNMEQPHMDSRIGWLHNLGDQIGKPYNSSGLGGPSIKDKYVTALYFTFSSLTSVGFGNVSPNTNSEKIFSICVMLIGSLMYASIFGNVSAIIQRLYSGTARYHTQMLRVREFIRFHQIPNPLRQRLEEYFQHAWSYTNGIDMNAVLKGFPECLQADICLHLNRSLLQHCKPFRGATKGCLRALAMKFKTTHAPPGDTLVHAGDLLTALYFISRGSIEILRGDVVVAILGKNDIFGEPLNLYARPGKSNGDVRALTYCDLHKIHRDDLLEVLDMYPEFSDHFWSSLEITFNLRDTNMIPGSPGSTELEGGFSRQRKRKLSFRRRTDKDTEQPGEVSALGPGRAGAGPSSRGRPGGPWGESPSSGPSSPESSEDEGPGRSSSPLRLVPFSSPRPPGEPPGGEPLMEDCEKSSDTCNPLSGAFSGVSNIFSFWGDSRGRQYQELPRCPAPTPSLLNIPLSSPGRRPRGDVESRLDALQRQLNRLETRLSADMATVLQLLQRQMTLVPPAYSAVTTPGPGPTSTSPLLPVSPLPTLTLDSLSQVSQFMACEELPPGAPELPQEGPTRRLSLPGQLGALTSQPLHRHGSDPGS
MEASURE: pIC50
Convention used: pIC50 is expressed as -log10 of the molar concentration.

Reference set (2 entries):
[[record]]
line_notation = "Cc1nsc(NC(=O)c2cc(Oc3ccc(C(=O)N4CCC4)cc3)cc(O[C@@H](C)CO)c2)n1"
recorded_measurement = 4.96

[[record]]
line_notation = "Cc1cnc(NC(=O)c2cc(Oc3ccc(C(=O)N4CCC4)cc3)cc(O[C@@H](C)CO)c2)cn1"
recorded_measurement = 4.42


Find pIC50 for "CC(C)Oc1cc(Oc2ccc(C(=O)N3CCC3)cc2)cc(C(=O)Nc2ccn(C)n2)c1" on Voltage-gated inwardly rectifying potassium channel KCNH2 (Homo sapiens, UniProt Q12809) and write it down. 4.57

Find pIC50 for "COC[C@H](C)Oc1cc(Oc2ccc(C(=O)N3CCC3)nc2)cc(C(=O)Nc2cnc(C)cn2)c1" on Voltage-gated inwardly rectifying potassium channel KCNH2 (Homo sapiens, UniProt Q12809) and write it down. 4.40

Find pIC50 for "C[C@@H](CO)Oc1cc(Oc2ccc(C(=O)N3CCC3)cc2)cc(C(=O)Nc2nccs2)c1" on Voltage-gated inwardly rectifying potassium channel KCNH2 (Homo sapiens, UniProt Q12809) and write it down. 5.05

Find pIC50 for "CC(C)n1ccc(NC(=O)c2cc(Oc3ccc(C(=O)N4CCC4)cc3)cc(O[C@@H](C)CO)c2)n1" on Voltage-gated inwardly rectifying potassium channel KCNH2 (Homo sapiens, UniProt Q12809) and write it down. 4.51

----------
Below, each of the compounds is paired with its reported pEC50 value.
target: Hexokinase-4 (Homo sapiens); test: […] of recombinant human pancreatic glucokinase by G-6-P dehydrogenase assay
Sequence (P35557 whole entry): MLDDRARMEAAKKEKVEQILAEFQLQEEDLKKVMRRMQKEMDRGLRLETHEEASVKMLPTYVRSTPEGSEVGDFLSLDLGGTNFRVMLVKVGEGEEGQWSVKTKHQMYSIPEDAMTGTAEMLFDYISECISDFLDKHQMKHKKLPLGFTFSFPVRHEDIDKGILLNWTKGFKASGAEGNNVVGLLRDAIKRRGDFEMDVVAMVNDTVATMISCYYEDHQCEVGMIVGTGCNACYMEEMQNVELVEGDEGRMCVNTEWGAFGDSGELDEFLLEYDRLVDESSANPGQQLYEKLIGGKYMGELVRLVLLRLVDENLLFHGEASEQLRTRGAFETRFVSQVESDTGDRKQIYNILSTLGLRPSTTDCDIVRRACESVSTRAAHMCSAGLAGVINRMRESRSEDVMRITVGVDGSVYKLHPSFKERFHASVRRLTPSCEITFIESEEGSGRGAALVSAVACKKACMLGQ
Convention used: pEC50 is expressed as -log10 of the molar concentration.

Reference set (7 entries):
[[record]]
compound = "COC[C@H](C)Oc1cc(Oc2ncc(C(=O)N3CCC3)cc2Cl)cc(C(=O)Nc2cnc(C)cn2)c1"
recorded_measurement = 7.22

[[record]]
compound = "CC(C)n1ccc(NC(=O)c2cc(Oc3ccc(C(=O)N4CCC4)cc3)cc(O[C@@H](C)CO)c2)n1"
recorded_measurement = 7.14

[[record]]
compound = "Cc1cnc(NC(=O)c2cc(Oc3ccc(C(=O)N4CCC4)cc3)cc(O[C@@H](C)CO)c2)cn1"
recorded_measurement = 7.21

[[record]]
compound = "Cn1ccc(NC(=O)c2cc(Oc3ccc(C(=O)N4CCC4)cc3)cc(O[C@H]3CCOC3)c2)n1"
recorded_measurement = 7.15

[[record]]
compound = "COC[C@H](C)Oc1cc(Oc2ccc(C(=O)N3CCC3)cc2)cc(C(=O)Nc2cnc(C)cn2)c1"
recorded_measurement = 7.14

[[record]]
compound = "COC[C@H](C)Oc1cc(Oc2cnc(C(=O)N3CCC3)cn2)cc(C(=O)Nc2cnc(C)cn2)c1 [AZD-1656]"
recorded_measurement = 7.21

[[record]]
compound = "COC[C@H](C)Oc1cc(Oc2ccc(C(=O)N3CCC3)cn2)cc(C(=O)Nc2cnc(C)cn2)c1"
recorded_measurement = 6.43


API: the following record is the query input.
Indicate its recorded pEC50; the compound in question is "Cn1ccc(NC(=O)c2cc(Oc3ccc(C(=O)N4CCC4)cc3)cc(OC(CF)CF)c2)n1" 7.33

----------
assay: Lipophilicity, log D of the compound; type: physicochemical; conditions: octanol/water
MEASURE: logD

Reference set (4 entries):
[[record]]
line_notation = "COC[C@H](C)Oc1cc(Oc2ccc(C(=O)N3CCC3)nc2)cc(C(=O)Nc2cnc(C)cn2)c1"
recorded_measurement = 2.9

[[record]]
line_notation = "COC[C@H](C)Oc1cc(Oc2cnc(C(=O)N3CCC3)cn2)cc(C(=O)Nc2cnc(C)cn2)c1"
recorded_measurement = 2.4

[[record]]
line_notation = "Cc1cnc(NC(=O)c2cc(Oc3ccc(C(=O)N4CCC4)cc3)cc(O[C@@H](C)CO)c2)cn1"
recorded_measurement = 2.4

[[record]]
line_notation = "CC(C)Oc1cc(Oc2ccc(C(=O)N3CCC3)cc2)cc(C(=O)Nc2ccn(C)n2)c1"
recorded_measurement = 3.3


Indicate its recorded logD; the compound in question is "COC[C@H](C)Oc1cc(Oc2ccc(C(=O)N3CCC3)cc2)cc(C(=O)Nc2cnc(C)cn2)c1" 2.9

Indicate its recorded logD; the compound in question is "Cn1ccc(NC(=O)c2cc(Oc3ccc(C(=O)N4CCC4)cc3)cc(OC(CF)CF)c2)n1" 2.6

Indicate its recorded logD; the compound in question is "Cc1nsc(NC(=O)c2cc(Oc3ccc(C(=O)N4CCC4)cc3)cc(O[C@@H](C)CO)c2)n1" 2.7

Indicate its recorded logD; the compound in question is "CC(C)n1ccc(NC(=O)c2cc(Oc3ccc(C(=O)N4CCC4)cc3)cc(O[C@@H](C)CO)c2)n1" 2.8

----------
assay: Clearance in dog; format: ADME, organism-based, Canis lupus familiaris; details: in vivo
MEASURE: clearance (mL/min/kg)
Give the value, in units of mL/min/kg, as a plain number.

Indicate its recorded clearance; the compound in question is COC[C@H](C)Oc1cc(Oc2cnc(C(=O)N3CCC3)cn2)cc(C(=O)Nc2cnc(C)cn2)c1 [AZD-1656] 8.1

----------
tested on: Salmonella typhimurium; assay: Genotoxicity in Salmonella typhimurium by Ames test; format: toxicity, organism-based; conditions: salmonella enterica subsp. enterica serovar typhimurium
MEASURE: Activity

[[record]]
line_notation = "Nc1cc[nH]n1"
recorded_measurement = "Non-toxic"

[[record]]
line_notation = "Cn1ccc(N)n1"
recorded_measurement = "Toxic"

[[record]]
line_notation = "Nc1nccs1"
recorded_measurement = "Non-toxic"

[[record]]
line_notation = "Cc1cnc(N)cn1"
recorded_measurement = "Non-toxic"

[[record]]
line_notation = "Cc1nsc(N)n1"
recorded_measurement = "Non-toxic"


Find Activity for "CCn1ccc(N)n1" on Salmonella typhimurium and write it down. Toxic

Find Activity for "CC(C)n1ccc(N)n1" on Salmonella typhimurium and write it down. Toxic

----------
assay: Lipophilicity, log D of the compound; format: physicochemical; settings: octanol/water
Below, each of the compounds is paired with its reported logD value.
Lab note: record just the number, no unit beside it.

Indicate its recorded logD; the compound in question is "COC[C@H](C)Oc1cc(Oc2ncc(C(=O)N3CCC3)cc2Cl)cc(C(=O)Nc2cnc(C)cn2)c1" 2.8

Indicate its recorded logD; the compound in question is "Cn1ccc(NC(=O)c2cc(Oc3ccc(C(=O)N4CCC4)cc3)cc(O[C@H]3CCOC3)c2)n1" 2.2

Indicate its recorded logD; the compound in question is "C[C@@H](CO)Oc1cc(Oc2ccc(C(=O)N3CCC3)cc2)cc(C(=O)Nc2nccs2)c1" 3.1

Indicate its recorded logD; the compound in question is "CCn1ccc(NC(=O)c2cc(Oc3ccc(C(=O)N4CCC4)cc3)cc(O[C@@H](C)CO)c2)n1" 2.4

Indicate its recorded logD; the compound in question is "COC[C@H](C)Oc1cc(Oc2ccc(C(=O)N3CCC3)cc2)cc(C(=O)Nc2ccn(C)n2)c1" 2.5

Indicate its recorded logD; the compound in question is "C[C@@H](CO)Oc1cc(Oc2ccc(C(=O)N3CCC3)cc2)cc(C(=O)Nc2cc[nH]n2)c1" 2
